test system: SF-539; assay: NCI tumour cell line growth inhibition, 48 h
The source made the active and inactive calls. Rule as the data show it: active = GI50 up to about 1.1 µM and inactive = higher.
measured_endpoint: GI50

O=C(c1ccc(Cl)cc1)N(C(=O)N1CCC(c2ccccc2)CC1)c1ccccc1: 65 µM (inactive)

In: GET /values?readout=GI50&item= `C[C@]12CC[C@H](O)CC1=CC[C@@H]1[C@@H]2CC[C@]2(C)C(=O)/C(=C/c3ccc([N+](=O)[O-])cc3)C[C@@H]12`
Out: 6.92 µM (inactive)

In: # iterate: `N/C(=N\O)N/N=C/c1ccc(O)c(O)c1`
Out: > 100 µM (inactive)

In: # iterate: `CCOC(=O)N1CCc2cc(OC)c(OC)c3c2c1cc1cc(OC)c(OC)cc13`
Out: 1.69 µM (inactive)

In: # iterate: `CCN(CC)CCOc1ccc(CCc2cc(OC)c(OC)c(OC)c2)cc1`
Out: 81.7 µM (inactive)

In: # iterate: `O=C(Nc1nc2ncn(CCI)c2c(=O)[nH]1)c1ccccc1`
Out: 26.1 µM (inactive)

In: # iterate: COc1ccc(C2c3c(-c4ccccc4)nn(-c4ccccc4)c3Oc3ncn(N)c(=N)c32)cc1OC (centres undefined)
Out: 1.69 µM (inactive)

In: # iterate: `COc1ccc(NC(=O)CC(=O)NN)cc1`
Out: > 100 µM (inactive)

In: # iterate: `O=C1c2cccc3cc([N+](=O)[O-])cc(c23)C(=O)N1CCNCCNCCNCCN1C(=O)c2cccc3cc([N+](=O)[O-])cc(c23)C1=O`
Out: 0.00547 µM (active)

In: # iterate: `O=P12N(CCN1c1ccccc1)CCN2c1ccccc1`
Out: > 100 µM (inactive)

In: # iterate: `Cn1c2c3c(F)c(F)ccc3nc-2cc2ccccc21`
Out: 2.06 µM (inactive)

In: # iterate: COC(=O)c1cc(C)ccc1CC(Cc1cccc(C)c1)C(=O)OC (centres undefined)
Out: > 100 µM (inactive)

In: # iterate: COC(=O)C(C(=O)C(=O)Nc1ccccc1C(C)=O)c1nc2ccc(Cl)cc2nc1O (centres undefined)
Out: > 100 µM (inactive)

In: # iterate: `C#CCn1c(=O)c(Cl)cn(/C(=C/C(=O)OCC)C(=O)OCC)c1=O`
Out: 6.11 µM (inactive)

In: # iterate: `CC(C)(C)NC(=S)N/N=C/c1ccccn1`
Out: 3.28 µM (inactive)

In: # iterate: `S=c1nc(Nc2ccc(Br)cc2)c2c3c(sc2[nH]1)CN(N1CCc2c(sc4[nH]c(=S)nc(Nc5ccc(Br)cc5)c24)C1)CC3`
Out: 29.3 µM (inactive)

====

system: HOP-62; assay: NCI tumour cell line growth inhibition, 48 h
Calls of active or inactive are those of the source. Cut-off read from the data, not from the text of the source: active = GI50 up to about 1.1 µM and inactive = higher.
Could you please pick one outcome from this set? active, inactive

These solved cases illustrate the format of a correct answer.
O=c1[nH]c2c(c(=O)[nH]1)SC(c1ccccc1)C2 (configuration not stated): inactive
COC(=O)[C@@H]1C[C@H](c2ccc(OC)c(OC)c2)OC1=O.COC(=O)[C@H]1C[C@H](c2ccc(OC)c(OC)c2)OC1=O: inactive
O=C1Nc2nccnc2C(=O)N2CCC[C@@H]12: inactive

In: Look up the recorded call for `CO/N=C(/C(=O)OC)c1ccccc1COc1ccccc1C(F)(F)F` in this test.
Out: inactive

In: # iterate: `O=C1c2cc3ncsc3cc2C(=O)c2c(O)ccc(O)c21`
Out: inactive

In: # iterate: `CCN(CC)CCOc1ccc(CCc2cc(OC)c(OC)c(OC)c2)cc1`
Out: inactive

In: # iterate: `C/C=C1\NC(=O)[C@H]2CSSCCC=C[C@H](CC(=O)N[C@H](C(C)C)C(=O)N2)OC(=O)[C@H](C(C)C)NC1=O`
Out: active

In: # iterate: CCCCCCCCCC(=O)NC(CCC(=O)N(CCNC(=O)c1nc(-c2ccccc2)oc1-c1ccccc1)Cc1ccccc1)C(=O)O (configuration not stated)
Out: inactive

In: # iterate: C/C(=N/N(C=O)C[n+]1ccccc1)C(CN(CC(C)C)CC(C)C)C(=O)Nc1ccc(C)cc1C (configuration not stated)
Out: inactive

In: # iterate: `CN(C)CCNc1ccc2nnn3c4ccc(Cl)cc4c(=O)c1c23`
Out: inactive

In: # iterate: `O=C1CN(C(=O)c2ccccc2)Cc2[nH]c3ccccc3c21`
Out: inactive

In: # iterate: `CC(C)(C)NC(=S)N/N=C/c1ccccn1`
Out: active

====

test system: IGROV-1; assay: NCI tumour cell line growth inhibition, 48 h
Active and inactive are the calls of the source. Cut-off read from the data, not from the text of the source: active = GI50 up to about 1.1 µM and inactive = higher.
Could you please pick one outcome from this set? active, inactive

These solved cases illustrate the format of a correct answer.
COc1ccc2oc3c(OC)c(OC)c(OC)cc3c(=O)c2c1: inactive
CCCCc1c2c(nc3c1CCc1cc(C=O)c(N)nc1-3)/C(=C/c1ccccc1)CCC2: inactive
CN(C)CC1CCCc2ccccc2C1=O (centres undefined): inactive
Oc1cc2c(cc1O)-c1[nH]ncc1CC2: inactive
CC1(C)C=C(S(=O)(=O)c2ccccc2)Oc2ccccc2O1: inactive

In: Look up the recorded call for `CN(CCCNC(=O)c1nn(C)c2c1Cc1ccccc1-2)CCCNC(=O)c1nn(C)c2c1Cc1ccccc1-2` in this test.
Out: inactive

In: # iterate: CC(NC(=O)/C(C#N)=C/c1ccc2[nH]ccc2c1)c1ccccc1 (centres undefined)
Out: inactive

In: # iterate: `CCCCCCN(CCCCCC)C(=S)N/N=C(\C)c1ccccn1`
Out: active

In: # iterate: C(CCC[Te][Te]CCCCCCOC1CCCCO1)CCOC1CCCCO1 (centres undefined)
Out: inactive

In: # iterate: CCOC(=O)C(SCCO)C(C(=O)OCC)n1cnc2c(=O)[nH]c(NC(C)=O)nc21 (centres undefined)
Out: inactive

In: # iterate: `C[n+]1c(-c2ccc(/C=N\N3CCN(/N=C/c4ccc(-c5cn6ccccc6[n+]5C)cc4)CC3)cc2)cn2ccccc21`
Out: inactive

In: # iterate: `CCc1nc(N)nc(N)c1-c1ccc(Cl)c(/N=C/N(C)C)c1`
Out: inactive

In: # iterate: COc1cc(C2c3cc4c(c(O)c3C(=O)C3CCC(=O)N32)OCO4)cc(OC)c1OC (centres undefined)
Out: inactive

In: # iterate: CCOC(=O)C1(C/C=C\CBr)CCCC1=O (centres undefined)
Out: inactive

====

Parameter: GI50. Scope: all listed entries.
tested on: SNB-19; assay: NCI tumour cell line growth inhibition, 48 h
Active and inactive are the calls of the source. Rule as the data show it: active = GI50 up to about 1.1 µM and inactive = higher.

Cc1cc(C)nc(NS(=O)(=O)c2ccc(Nc3c4ccccc4nc4c(C(=O)Nc5ccc(S(N)(=O)=O)cc5)cccc34)cc2)n1: 47 µM (inactive)
Cc1nc2ccccc2c(=O)n1/N=C(\N=N\c1cc(Cl)ccc1Cl)c1ccc(N(C)C)cc1: 33.3 µM (inactive)
C#C[C@]1(O)CC[C@H]2[C@@H]3CCC4=C/C(=N\OCCN5CCCC5)CC[C@]4(C)[C@H]3CC[C@@]21C: 15.3 µM (inactive)

Now look at this entry.
In: GET /values?readout=GI50&item= `O=C(O)c1c(-c2nccc3ccccc23)[nH]c(-c2ccccc2)c1S(=O)(=O)O`
Out: > 100 µM (inactive)

====

system: SNB-19; experiment: NCI tumour cell line growth inhibition, 48 h
The source made the active and inactive calls. Cut-off read from the data, not from the text of the source: active = GI50 up to about 1.1 µM and inactive = higher.
measured_endpoint: GI50

Below are worked cases with known answers.
COc1cc2ncnc(Nc3cccc(Br)c3)c2cc1OC: 15.2 µM (inactive)
COc1ccc(OC)c(-c2cn3c(n2)sc2ccccc23)c1: > 100 µM (inactive)
COc1ccc(OC)c(/C=N/N=C(\N)NO)c1: 88.7 µM (inactive)
CCN(CC)CCNCc1cc(Cl)cc2c1OCOC2: > 10 µM (inactive)
Clc1ccc2c(Cl)ncnc2c1I: > 100 µM (inactive)
COC1=CC(=O)C2[C@H]3Cc4ccccc4[C@H]3C2(C)C1=O (some centres undefined): > 100 µM (inactive)

In: Missing value: GI50, SNB-19, entry `CC(C)(C)c1ccc(OCCOCCOc2ccc(C(C)(C)C)cc2S(=O)(=O)Nc2ccc([N+](=O)[O-])cc2)c(S(=O)(=O)Nc2ccc([N+](=O)[O-])cc2)c1` . Fill in?
Out: 76.4 µM (inactive)

In: # iterate: `CCOC(=O)NC/C=C/CO`
Out: > 100 µM (inactive)

In: # iterate: `Oc1nc(-c2ccccc2)cc(-c2ccccc2O)n1`
Out: 58.2 µM (inactive)

In: # iterate: `Cc1cc(C)c2c(n1)S(=O)(=O)N(CCCN1CCN(c3cccc(C(F)(F)F)c3)CC1)C(C(=O)c1ccccc1)=C2O`
Out: 5.53 µM (inactive)

In: # iterate: `Cc1cccc(/N=N/c2ccc(/N=N/c3c(O)ccc4ccccc34)cc2C)c1`
Out: 38.2 µM (inactive)

In: # iterate: c1ccc(C[N+]23C(CC[C@H]2c2ccccc2)CC[C@H]3c2ccccc2)cc1 (some centres undefined)
Out: 29.5 µM (inactive)

In: # iterate: O=C(CC1(O)C(=O)Nc2ccccc21)c1cccc(O)c1 (centres undefined)
Out: > 100 µM (inactive)

In: # iterate: O=C(Nc1ccn(C2CCC(CO)O2)c(=O)n1)c1ccccc1 (centres undefined)
Out: > 100 µM (inactive)

Taken from ChEMBL document CHEMBL1201862.
